Test System: TGFβ1 (R&D Systems)
Sequence (P01137 279-390): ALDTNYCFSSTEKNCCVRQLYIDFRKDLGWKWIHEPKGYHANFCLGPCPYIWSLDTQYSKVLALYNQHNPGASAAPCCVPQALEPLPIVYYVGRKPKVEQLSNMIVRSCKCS
Test Description: cell-based or functional assay
We use 30 nM as the dividing line for CMVIC pSmad-3, IC50: on or above the line is yes, below is no.

1. Can-SL501-VH3 Y111I / Can-SL501-VL2 (antibody, V domains shown) VH: EVQLVESGGDLVKPGGSLRLSCVASGFTFSSYGMHWVRQAPGKELEWVAVISYDGSIKYYADAVKGRFTISRDNAKNTLYLQMNSLRAEDTAVYYCARTGEYSGYDTDPQISWGQGTTVTVSS VL: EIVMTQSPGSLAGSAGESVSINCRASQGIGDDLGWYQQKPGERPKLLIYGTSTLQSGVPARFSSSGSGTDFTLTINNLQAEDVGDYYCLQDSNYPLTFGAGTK :: yes
2. Can-SL501-VH3 Y111F / Can-SL501-VL2 (antibody, V domains shown) VH: EVQLVESGGDLVKPGGSLRLSCVASGFTFSSYGMHWVRQAPGKELEWVAVISYDGSIKYYADAVKGRFTISRDNAKNTLYLQMNSLRAEDTAVYYCARTGEYSGYDTDPQFSWGQGTTVTVSS VL: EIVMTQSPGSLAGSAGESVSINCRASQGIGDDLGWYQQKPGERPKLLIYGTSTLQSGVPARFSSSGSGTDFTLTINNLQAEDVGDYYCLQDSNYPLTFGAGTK :: yes
3. Can-SL501-VH3 D108R / Can-SL501-VL2 (antibody, V domains shown) VH: EVQLVESGGDLVKPGGSLRLSCVASGFTFSSYGMHWVRQAPGKELEWVAVISYDGSIKYYADAVKGRFTISRDNAKNTLYLQMNSLRAEDTAVYYCARTGEYSGYDTRPQYSWGQGTTVTVSS VL: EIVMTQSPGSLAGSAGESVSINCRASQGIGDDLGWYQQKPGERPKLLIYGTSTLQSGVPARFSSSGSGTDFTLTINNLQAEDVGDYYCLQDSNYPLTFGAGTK :: no
4. Can-SL501-VH3 Q110D / Can-SL501-VL2 (antibody, V domains shown) VH: EVQLVESGGDLVKPGGSLRLSCVASGFTFSSYGMHWVRQAPGKELEWVAVISYDGSIKYYADAVKGRFTISRDNAKNTLYLQMNSLRAEDTAVYYCARTGEYSGYDTDPDYSWGQGTTVTVSS VL: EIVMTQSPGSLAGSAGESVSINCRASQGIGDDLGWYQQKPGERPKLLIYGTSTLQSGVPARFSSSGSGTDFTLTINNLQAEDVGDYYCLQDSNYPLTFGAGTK :: no
5. Can-SL501-VH3 S112D / Can-SL501-VL2 (antibody, V domains shown) VH: EVQLVESGGDLVKPGGSLRLSCVASGFTFSSYGMHWVRQAPGKELEWVAVISYDGSIKYYADAVKGRFTISRDNAKNTLYLQMNSLRAEDTAVYYCARTGEYSGYDTDPQYDWGQGTTVTVSS VL: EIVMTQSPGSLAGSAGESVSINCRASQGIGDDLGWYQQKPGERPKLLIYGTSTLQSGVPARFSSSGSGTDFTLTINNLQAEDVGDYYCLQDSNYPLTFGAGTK :: no
